Exercise: for every item that follows, state its recorded Antagonist: Jurkat/Reporter assay (IC50 nM).
targetSystem: Human CD40 (human, UniProt P25942 21-277)
Sequence (P25942 21-277 limits assumed): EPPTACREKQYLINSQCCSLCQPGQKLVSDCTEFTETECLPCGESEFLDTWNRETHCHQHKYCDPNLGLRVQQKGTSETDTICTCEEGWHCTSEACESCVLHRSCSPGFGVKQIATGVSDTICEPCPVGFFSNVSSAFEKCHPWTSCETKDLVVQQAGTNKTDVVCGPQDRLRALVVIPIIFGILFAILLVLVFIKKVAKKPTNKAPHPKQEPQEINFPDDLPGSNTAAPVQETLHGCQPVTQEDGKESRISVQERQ
testMethodNotes: cell-based or functional assay

Q: Please give the documented Antagonist: Jurkat/Reporter assay (IC50 nM) of huAb1v1CDR2v8 (antibody, V domains shown) VH: EVQLVESGGGLVKPGGSLRLSCAASGFTFSDYGMNWVRQAPGKGLEWIAYISSGRINIYYADTVKGRFTISRDNAKNSLYLQMNSLRAEDTAVYYCARSWGYFDVWGQGTTVTVSS VL: DIVMTQSPDSLAVSLGERATINCKSSQSLLNRGNQKNYLTWFQQKPGQPPKLLIYWASTRESGVPDRFSGSGSGTDFTLTISSLQAEDVAVYYCQNDYTYPLTFGQGTKLEIK
Result: > 1000 nM

Q: Given huAb1v1CDR2v7 (antibody, V domains shown) VH: EVQLVESGGGLVKPGGSLRLSCAASGFTFSDYGMNWVRQAPGKGLEWIAYISSGRGNIYYADTVKGRFTISRDNAKNSLYLQMNSLRAEDTAVYYCARSWGYFDVWGQGTTVTVSS VL: DIVMTQSPDSLAVSLGERATINCKSSQSLLNRGNQKNYLTWFQQKPGQPPKLLIYWASTRESGVPDRFSGSGSGTDFTLTISSLQAEDVAVYYCQNDYTYPLTFGQGTKLEIK , respond with its Antagonist: Jurkat/Reporter assay (IC50 nM).
Result: 2.69 nM

Q: Tell me its Antagonist: Jurkat/Reporter assay (IC50 nM) given huAb1v1CDR2v2 (antibody, V domains shown) VH: EVQLVESGGGLVKPGGSLRLSCAASGFTFSDYGMNWVRQAPGKGLEWIAYISSGRDNIYYADTVKGRFTISRDNAKNSLYLQMNSLRAEDTAVYYCARSWGYFDVWGQGTTVTVSS VL: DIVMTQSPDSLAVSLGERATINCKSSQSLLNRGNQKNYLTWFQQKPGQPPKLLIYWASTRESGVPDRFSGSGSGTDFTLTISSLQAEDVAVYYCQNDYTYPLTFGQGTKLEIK as the entry.
Result: > 1000 nM
